Property: relative viability; scope: individual compounds
tested on: HCC-78; assay: relative viability (nuclei count vs DMSO), 5 days (fraction); higher = more cells survive; conditions: first compound 0.02 µM
Respond numerically, and do not add a unit to the figure.

Below, each entry is followed by its recorded relative viability result.
>  <Compound>
CN1CCN(CCOc2cc(OC3CCOCC3)c3c(Nc4c(Cl)ccc5c4OCO5)ncnc3c2)CC1 [Saracatinib] + CS(=O)(=O)CCNCc1ccc(-c2ccc3ncnc(Nc4ccc(OCc5cccc(F)c5)c(Cl)c4)c3c2)o1 [Lapatinib] (partner 2 µM)

>  <relative viability>
0.822

$$$$
>  <Compound>
CCNC(=O)c1noc(-c2cc(C(C)C)c(O)cc2O)c1-c1ccc(CN2CCOCC2)cc1 [Luminespib] + Nc1nc2[nH]cc(CCc3ccc(C(=O)N[C@@H](CCC(=O)O)C(=O)O)cc3)c2c(=O)[nH]1 [Pemetrexed] (partner 0.2 µM)

>  <relative viability>
0.97

$$$$
>  <Compound>
CN1CCN(CCOc2cc(OC3CCOCC3)c3c(Nc4c(Cl)ccc5c4OCO5)ncnc3c2)CC1 [Saracatinib] + CC(C)C[C@H](NC(=O)[C@H](Cc1ccccc1)NC(=O)c1cnccn1)B(O)O [Bortezomib] (partner 0.002 µM)

>  <relative viability>
0.505

$$$$
>  <Compound>
CCNC(=O)c1noc(-c2cc(C(C)C)c(O)cc2O)c1-c1ccc(CN2CCOCC2)cc1 [Luminespib] + NC(=O)Nc1cc(-c2cccc(F)c2)sc1C(=O)N[C@H]1CCCNC1 [AZD7762] (partner 0.2 µM)

>  <relative viability>
0.536

$$$$
>  <Compound>
CN1CCN(CCOc2cc(OC3CCOCC3)c3c(Nc4c(Cl)ccc5c4OCO5)ncnc3c2)CC1 [Saracatinib] + NC(=O)Nc1cc(-c2cccc(F)c2)sc1C(=O)N[C@H]1CCCNC1 [AZD7762] (partner 0.2 µM)

>  <relative viability>
0.583

$$$$

Would you kindly look at the next entry?
Reported relative viability for CN1CCN(CCOc2cc(OC3CCOCC3)c3c(Nc4c(Cl)ccc5c4OCO5)ncnc3c2)CC1 [Saracatinib] + COc1cc2c(Oc3ccc(NC(=O)C4(C(=O)Nc5ccc(F)cc5)CC4)cc3F)ccnc2cc1OCCCN1CCOCC1 [Foretinib] (partner 0.25 µM) : what is it?
0.534

* * *

Property: relative viability; scope: individual compounds
system: COR-L 105; assay: relative viability (nuclei count vs DMSO), 5 days (fraction); higher = more cells survive; conditions: first compound 0.2 µM
Respond numerically, and do not add a unit to the figure.

Below, each entry is followed by its recorded relative viability result.
>  <Compound>
CCNC(=O)c1noc(-c2cc(C(C)C)c(O)cc2O)c1-c1ccc(CN2CCOCC2)cc1 [Luminespib] + CC(C)C[C@H](NC(=O)[C@H](Cc1ccccc1)NC(=O)c1cnccn1)B(O)O [Bortezomib] (partner 0.002 µM)

>  <relative viability>
0.206

$$$$
>  <Compound>
CN1CCN(CCOc2cc(OC3CCOCC3)c3c(Nc4c(Cl)ccc5c4OCO5)ncnc3c2)CC1 [Saracatinib] + O=C(CCCCCCC(=O)Nc1ccccc1)NO [Vorinostat] (partner 1 µM)

>  <relative viability>
0.668

$$$$
>  <Compound>
Cc1csc(=NC2CCCCC2)n1/N=C/c1ccc(O)c(O)c1O [MIM1] + CS(=O)(=O)CCNCc1ccc(-c2ccc3ncnc(Nc4ccc(OCc5cccc(F)c5)c(Cl)c4)c3c2)o1 [Lapatinib] (partner 2 µM)

>  <relative viability>
0.371

$$$$

Short answer please: relative viability, COR-L 105, entry CCNC(=O)c1noc(-c2cc(C(C)C)c(O)cc2O)c1-c1ccc(CN2CCOCC2)cc1 [Luminespib] + COc1cccc2cc(-c3nc([C@H]4CC[C@H](C(=O)O)CC4)n4ncnc(N)c34)[nH]c12 [OSI-027] (partner 0.5 µM)
0.176

Short answer please: relative viability, COR-L 105, entry Cc1csc(=NC2CCCCC2)n1/N=C/c1ccc(O)c(O)c1O [MIM1] + CC(=O)Nc1cccc(-n2c(=O)n(C3CC3)c(=O)c3c(Nc4ccc(I)cc4F)n(C)c(=O)c(C)c32)c1 [Trametinib] (partner 0.02 µM)
0.45

Short answer please: relative viability, COR-L 105, entry CCNC(=O)c1noc(-c2cc(C(C)C)c(O)cc2O)c1-c1ccc(CN2CCOCC2)cc1 [Luminespib] + O=C(c1cc(Cc2n[nH]c(=O)c3ccccc23)ccc1F)N1CCN(C(=O)C2CC2)CC1 [Olaparib] (partner 8 µM)
0.295

Short answer please: relative viability, COR-L 105, entry CCNC(=O)c1noc(-c2cc(C(C)C)c(O)cc2O)c1-c1ccc(CN2CCOCC2)cc1 [Luminespib] + Nc1nc2[nH]cc(CCc3ccc(C(=O)N[C@@H](CCC(=O)O)C(=O)O)cc3)c2c(=O)[nH]1 [Pemetrexed] (partner 0.2 µM)
0.24

Short answer please: relative viability, COR-L 105, entry Cc1csc(=NC2CCCCC2)n1/N=C/c1ccc(O)c(O)c1O [MIM1] + COc1cccc2cc(-c3nc([C@H]4CC[C@H](C(=O)O)CC4)n4ncnc(N)c34)[nH]c12 [OSI-027] (partner 0.5 µM)
0.733

Short answer please: relative viability, COR-L 105, entry Cc1csc(=NC2CCCCC2)n1/N=C/c1ccc(O)c(O)c1O [MIM1] + O=C(c1cc(Cc2n[nH]c(=O)c3ccccc23)ccc1F)N1CCN(C(=O)C2CC2)CC1 [Olaparib] (partner 8 µM)
0.694

* * *

Property: relative viability; scope: individual molecules
test system: NCI-H1703; test: relative viability (nuclei count vs DMSO), 5 days (fraction); higher = more cells survive; conditions: first compound 2 µM

Reported relative viability for CN1CCN(CCOc2cc(OC3CCOCC3)c3c(Nc4c(Cl)ccc5c4OCO5)ncnc3c2)CC1 [Saracatinib] + NC(=O)Nc1cc(-c2cccc(F)c2)sc1C(=O)N[C@H]1CCCNC1 [AZD7762] (partner 0.2 µM) : what is it?
0.114

Reported relative viability for CN1CCN(CCOc2cc(OC3CCOCC3)c3c(Nc4c(Cl)ccc5c4OCO5)ncnc3c2)CC1 [Saracatinib] + CS(=O)(=O)CCNCc1ccc(-c2ccc3ncnc(Nc4ccc(OCc5cccc(F)c5)c(Cl)c4)c3c2)o1 [Lapatinib] (partner 2 µM) : what is it?
0.283

Reported relative viability for Cc1csc(=NC2CCCCC2)n1/N=C/c1ccc(O)c(O)c1O [MIM1] + C[C@]1(O)C[C@@H](c2nc(-c3ccc4ccc(-c5ccccc5)nc4c3)c3c(N)nccn32)C1 [Linsitinib] (partner 1 µM) : what is it?
0.701

Reported relative viability for Cc1csc(=NC2CCCCC2)n1/N=C/c1ccc(O)c(O)c1O [MIM1] + CS(=O)(=O)N1CCN(Cc2cc3nc(-c4cccc5[nH]ncc45)nc(N4CCOCC4)c3s2)CC1 [Pictilisib] (partner 1 µM) : what is it?
0.286

* * *

Property: relative viability; scope: individual compounds
system: NCI-H1666; assay: relative viability (nuclei count vs DMSO), 5 days (fraction); higher = more cells survive; conditions: first compound 0.02 µM

>  <Compound>
CN1CCN(CCOc2cc(OC3CCOCC3)c3c(Nc4c(Cl)ccc5c4OCO5)ncnc3c2)CC1 [Saracatinib] + C[C@@H](Oc1cc(-c2cnn(C3CCNCC3)c2)cnc1N)c1c(Cl)ccc(F)c1Cl [Crizotinib] (partner 1 µM)

>  <Test Target>
NCI-H1666

>  <Result>
1.04

$$$$

Reported relative viability for CN1CCN(CCOc2cc(OC3CCOCC3)c3c(Nc4c(Cl)ccc5c4OCO5)ncnc3c2)CC1 [Saracatinib] + NC(=O)Nc1cc(-c2cccc(F)c2)sc1C(=O)N[C@H]1CCCNC1 [AZD7762] (partner 0.2 µM) : what is it?
0.956

Reported relative viability for CCNC(=O)c1noc(-c2cc(C(C)C)c(O)cc2O)c1-c1ccc(CN2CCOCC2)cc1 [Luminespib] + N=C(N)NC(=N)NCCc1ccccc1 [Phenformin] (partner 250 µM) : what is it?
0.574

Reported relative viability for CN1CCN(CCOc2cc(OC3CCOCC3)c3c(Nc4c(Cl)ccc5c4OCO5)ncnc3c2)CC1 [Saracatinib] + C[C@]1(O)C[C@@H](c2nc(-c3ccc4ccc(-c5ccccc5)nc4c3)c3c(N)nccn32)C1 [Linsitinib] (partner 1 µM) : what is it?
0.81

* * *

Property: relative viability; scope: individual compounds
tested on: Calu-6; assay: relative viability (nuclei count vs DMSO), 5 days (fraction); higher = more cells survive; conditions: first compound 0.2 µM
Respond numerically, and do not add a unit to the figure.

Below, each entry is followed by its recorded relative viability result.
>  <Compound>
CN1CCN(CCOc2cc(OC3CCOCC3)c3c(Nc4c(Cl)ccc5c4OCO5)ncnc3c2)CC1 [Saracatinib] + CS(=O)(=O)N1CCN(Cc2cc3nc(-c4cccc5[nH]ncc45)nc(N4CCOCC4)c3s2)CC1 [Pictilisib] (partner 1 µM)

>  <relative viability>
0.645

$$$$
>  <Compound>
CCNC(=O)c1noc(-c2cc(C(C)C)c(O)cc2O)c1-c1ccc(CN2CCOCC2)cc1 [Luminespib] + C[C@]1(O)C[C@@H](c2nc(-c3ccc4ccc(-c5ccccc5)nc4c3)c3c(N)nccn32)C1 [Linsitinib] (partner 1 µM)

>  <relative viability>
0.0978

$$$$

Reported relative viability for CCNC(=O)c1noc(-c2cc(C(C)C)c(O)cc2O)c1-c1ccc(CN2CCOCC2)cc1 [Luminespib] + COc1cc2c(Oc3ccc(NC(=O)C4(C(=O)Nc5ccc(F)cc5)CC4)cc3F)ccnc2cc1OCCCN1CCOCC1 [Foretinib] (partner 0.25 µM) : what is it?
0.086

Reported relative viability for CCNC(=O)c1noc(-c2cc(C(C)C)c(O)cc2O)c1-c1ccc(CN2CCOCC2)cc1 [Luminespib] + CS(=O)(=O)CCNCc1ccc(-c2ccc3ncnc(Nc4ccc(OCc5cccc(F)c5)c(Cl)c4)c3c2)o1 [Lapatinib] (partner 2 µM) : what is it?
0.119

Sourced from the supplement of paper PMC10307832
